These data points were gathered from patent US10112939B2.

Entries and their IC50
# experimental.system: UniProtKB O75116
# protocol.notes: ROCK assay (peptide substrate phosphorylation, LABCHIP 3000 Reader)
# Type: biochemical
# protocol.conditions: 5 μM ATP, 1.5 μM peptide substrate
I only need the number, in nM, no unit after it.

# example entries with known answers
> print(dat)
                                   compound  property.name  result.number
1  COc1cc(C(=O)N2CCC[C@@H]2c2cccc(S(C)(=O)=O)c2)ccc1-c1cn[nH]c1           IC50           11.6
2  CNC(=O)c1cccc([C@H]2CC(O)CN2C(=O)c2ccc(-c3cn[nH]c3)c(OC)c2)c1 (some centres unmarked)           IC50           18.2
3  COc1cccc(C2CCCCN2C(=O)c2ccc(-c3cn[nH]c3)c(OC)c2)c1 (centres unmarked)           IC50            673

// next entry
Would you kindly share the measured IC50 for COc1cc(C(=O)N2CCCC(c3ccccc3)C2)ccc1-c1cn[nH]c1 (centres unmarked) ?
1430

====

Entries and their log10 IC50
# experimental.system: ROCK2 (Homo sapiens (Human), UniProt O75116)
# Sequence (O75116 whole entry, species assumed): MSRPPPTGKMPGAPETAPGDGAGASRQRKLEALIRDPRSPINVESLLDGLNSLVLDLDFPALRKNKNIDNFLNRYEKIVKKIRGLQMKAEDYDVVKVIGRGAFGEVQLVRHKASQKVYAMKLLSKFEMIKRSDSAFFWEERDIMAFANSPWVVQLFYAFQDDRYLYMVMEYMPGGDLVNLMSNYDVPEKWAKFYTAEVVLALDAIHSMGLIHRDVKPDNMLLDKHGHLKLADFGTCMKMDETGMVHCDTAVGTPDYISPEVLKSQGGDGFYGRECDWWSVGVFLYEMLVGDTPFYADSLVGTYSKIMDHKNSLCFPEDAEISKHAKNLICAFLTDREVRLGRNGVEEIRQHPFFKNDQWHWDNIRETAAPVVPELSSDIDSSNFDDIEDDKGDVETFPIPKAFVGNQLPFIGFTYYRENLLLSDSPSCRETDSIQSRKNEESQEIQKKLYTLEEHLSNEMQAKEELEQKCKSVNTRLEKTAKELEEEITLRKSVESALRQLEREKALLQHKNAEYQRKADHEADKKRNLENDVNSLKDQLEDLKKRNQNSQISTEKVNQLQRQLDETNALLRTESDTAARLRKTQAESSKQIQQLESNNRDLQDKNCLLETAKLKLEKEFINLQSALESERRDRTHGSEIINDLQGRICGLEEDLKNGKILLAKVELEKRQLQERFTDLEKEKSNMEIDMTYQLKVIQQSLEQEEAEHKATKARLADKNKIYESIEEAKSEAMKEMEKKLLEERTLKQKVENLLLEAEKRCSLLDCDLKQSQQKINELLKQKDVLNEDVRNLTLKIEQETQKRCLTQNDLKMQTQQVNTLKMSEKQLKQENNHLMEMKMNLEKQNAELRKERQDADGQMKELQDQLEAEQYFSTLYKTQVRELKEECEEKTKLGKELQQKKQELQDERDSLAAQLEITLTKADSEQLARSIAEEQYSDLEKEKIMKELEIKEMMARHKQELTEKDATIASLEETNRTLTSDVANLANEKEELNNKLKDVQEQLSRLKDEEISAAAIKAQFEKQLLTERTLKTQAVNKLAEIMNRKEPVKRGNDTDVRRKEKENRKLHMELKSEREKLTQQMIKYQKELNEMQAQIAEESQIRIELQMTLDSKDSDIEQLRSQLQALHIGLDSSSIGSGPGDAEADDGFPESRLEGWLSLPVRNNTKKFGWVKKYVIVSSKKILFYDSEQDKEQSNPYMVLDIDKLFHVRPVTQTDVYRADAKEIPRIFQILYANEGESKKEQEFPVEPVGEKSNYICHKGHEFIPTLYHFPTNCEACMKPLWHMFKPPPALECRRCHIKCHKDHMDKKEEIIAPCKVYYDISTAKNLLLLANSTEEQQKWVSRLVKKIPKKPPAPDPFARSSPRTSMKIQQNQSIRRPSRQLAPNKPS
# protocol.notes: ROCK assay (peptide substrate phosphorylation, LABCHIP 3000 Reader)
# Format: biochemical
# protocol.conditions: 5 μM ATP, 1.5 μM peptide substrate
The common logarithm of IC50 in µM is what is listed.

> print(dat)
                                   molecule  result.number
1  COc1cc(C(=O)N2CC(F)(F)C[C@@H]2c2cccc(C(=O)NC3CC3)c2)ccc1-c1ccncc1          -1.61
2  COc1ccc(C2CCCN2C(=O)c2ccc(-c3cn[nH]c3)c(OC)c2)cc1 (centres unmarked)          -0.48
3  COc1cccc(C2CCCN2C(=O)c2ccc(-c3cn[nH]c3)c(OC)c2)c1 (centres unmarked) [Example 11]           0.21
4  COc1cc(C(=O)N2CCCC2c2cccc(-c3cn[nH]c3)c2)ccc1-c1cn[nH]c1 (centres unmarked)          -1.26
5  COC(=O)c1cccc([C@H]2CC(OC(C)=O)CN2C(=O)c2ccc(-c3cn[nH]c3)c(OC)c2)c1 (some centres unmarked)          -1.26
6  COc1cc(C(=O)N2CCCC2c2cccc(-c3ccn[nH]3)c2)ccc1-c1cn[nH]c1 (centres unmarked)          -0.05

Would you kindly share the measured log10 IC50 for COc1cc(C(=O)N2CCC[C@@H]2c2cccc(C(=O)NC3CCS(=O)(=O)C3)c2)ccc1-c1cn[nH]c1 (some centres unmarked) ?
-2.26

Would you kindly share the measured log10 IC50 for COc1cc(C(=O)N2CC(O)C[C@@H]2c2cccc(C(=O)NCc3ccc(C(F)(F)F)cc3F)c2)ccc1-c1cn[nH]c1 (some centres unmarked) ?
-2.28

Would you kindly share the measured log10 IC50 for COc1cc(C(=O)N2CC(O)C[C@@H]2c2cccc(C(=O)NCC(C)(C)O)c2)ccc1-c1cn[nH]c1 (some centres unmarked) ?
-2.14

Would you kindly share the measured log10 IC50 for COc1cc(C(=O)N2CCCC2c2ccc3ccccc3c2)ccc1-c1cn[nH]c1 (centres unmarked) ?
-1.17

====

Entries and their IC50
# experimental.system: ROCK2 (Homo sapiens (Human), UniProt O75116)
# protocol.notes: ROCK assay (peptide substrate phosphorylation, LABCHIP 3000 Reader)
# Format: biochemical
# protocol.conditions: 5 μM ATP, 1.5 μM peptide substrate
I only need the number, in nM, no unit after it.

# example entries with known answers
> print(dat)
                                   compound  result.number
1  COc1cc(C(=O)N2CC(O)C[C@@H]2c2cccc(C(=O)N3CC(C#N)C3)c2)ccc1-c1cn[nH]c1 (stereo partly shown) [Example 61]            102
2  COc1cc(C(=O)N2CCC[C@@H]2C(=O)OC(C)(C)C)ccc1-c1cn[nH]c1 [Example 24]           1100
3  COc1cc(C(=O)N2CCCC2c2cccc(OCC(F)F)c2)ccc1-c1cn[nH]c1 (stereo not shown) [Example 102]            411

Would you kindly share the measured IC50 for COc1cc(C(=O)N2CCCC2c2ccccc2Cl)ccc1-c1cn[nH]c1 (stereo not shown) [Example 28] ?
15.8

====

# experimental.system: ROCK2 (Homo sapiens (Human))
# protocol.notes: ROCK assay (peptide substrate phosphorylation, LABCHIP 3000 Reader)
# Format: biochemical
# protocol.conditions: 5 μM ATP, 1.5 μM peptide substrate
Entries and their pIC50
pIC50 is a log-scale quantity: -log10 of the concentration expressed in molar.

# example entries with known answers
> print(dat)
                                   compound  result.number
1  COc1cc(C(=O)N2CCC[C@@H]2c2cccc(C(=O)NCC(C)(C)O)c2)ccc1-c1cn[nH]c1           8.34
2  COc1cc(C(=O)N2CC(O)C[C@@H]2c2cccc(C(=O)NC3CC3)c2)ccc1-c1cn[nH]c1 (some centres unmarked)           8.27
3  COc1cc(C(=O)N2CCCC2c2ccc(C(F)(F)F)cc2)ccc1-c1cn[nH]c1 (centres unmarked)           6.90
4  COc1cc(C(=O)N2CCC[C@@H]2c2cccc(C(=O)N(C)C)c2)ccc1-c1cn[nH]c1           6.14
5  COc1cc(C(=O)N2CCCC2c2cccc(-c3cnn(CC(C)(C)O)c3)c2)ccc1-c1cn[nH]c1 (centres unmarked)           6.05
6  COc1cc(C(=O)N2CCCC2c2cccc(-c3ccoc3)c2)ccc1-c1cn[nH]c1 (centres unmarked)           6.49
7  COc1cc(C(=O)N2CC(O)C[C@@H]2c2cccc(C(=O)N3CCC3)c2)ccc1-c1cn[nH]c1 (some centres unmarked)           6.53

// next entry
Would you kindly share the measured pIC50 for COc1cc(C(=O)N2CC(OC(C)=O)C[C@@H]2c2cccc(S(C)(=O)=O)c2)ccc1-c1cn[nH]c1 (some centres unmarked) ?
6.11

====

# experimental.system: ROCK2 (Homo sapiens (Human), UniProt O75116)
# protocol.notes: ROCK assay (peptide substrate phosphorylation, LABCHIP 3000 Reader)
# Type: biochemical
# protocol.conditions: 5 μM ATP, 1.5 μM peptide substrate
property.name: pIC50
pIC50 is a log-scale quantity: -log10 of the concentration expressed in molar.

# example entries with known answers
> print(dat)
                                   compound  property.name  result.number
1  COc1cc(C(=O)N2CCCC2c2cccc(OCc3cc(C)on3)c2)ccc1-c1cn[nH]c1 (stereo not drawn) [Example 103]          pIC50           7.21
2  COc1cc(C(=O)N2CCCC2c2cccc(-c3c(C)noc3C)c2)ccc1-c1cn[nH]c1 (stereo not drawn) [Example 75]          pIC50           5.80
3  COc1cc(C(=O)N2CC(O)C[C@@H]2c2cccc(C(=O)NCC3CC3)c2)ccc1-c1cn[nH]c1 (stereo partly drawn) [Example 51]          pIC50           8.57

Would you kindly share the measured pIC50 for COc1cc(C(=O)N2CCCC2c2cccc(C)c2)ccc1-c1cn[nH]c1 (stereo not drawn) [Example 27] ?
7.21

====

# experimental.system: ROCK2 (Homo sapiens (Human))
# protocol.notes: ROCK assay (peptide substrate phosphorylation, LABCHIP 3000 Reader)
# Format: biochemical
# protocol.conditions: 5 μM ATP, 1.5 μM peptide substrate
property.name: pIC50
pIC50 is a log-scale quantity: -log10 of the concentration expressed in molar.

> print(dat)
                                   compound  property.name  result.number
1  COc1cc(C(=O)N2CCC[C@H]2CO)ccc1-c1cn[nH]c1 [Example 3]          pIC50           5.87

pIC50 of COc1cc(C(=O)N2CC(OC)C[C@@H]2c2cccc(C(=O)N(C)CC3CC3)c2)ccc1-c1cn[nH]c1 (stereo partly shown) [Example 87] on ROCK2 (Homo sapiens (Human))?
6.34

pIC50 of COc1cc(C(=O)N2CCCC2c2cccc(OC3CCN(C)CC3)c2)ccc1-c1cn[nH]c1 (stereo not shown) [Example 104] on ROCK2 (Homo sapiens (Human))?
5.86

pIC50 of COc1cc(C(=O)N2CCC[C@@H]2c2cccc(C(=O)NC3CC3)c2)ccc1-c1cn[nH]c1 [Example 42] on ROCK2 (Homo sapiens (Human))?
8.34

====

# experimental.system: ROCK2 (Homo sapiens (Human), UniProt O75116)
# protocol.notes: ROCK assay (peptide substrate phosphorylation, LABCHIP 3000 Reader)
# Assay type: biochemical
# protocol.conditions: 5 μM ATP, 1.5 μM peptide substrate
Response field label: string, one of t (IC50 strictly below 60 nM) or f.

> print(dat)
                                   molecule  class.name
1  COc1cc(C(=O)N2CC(O)C[C@@H]2c2cccc(C(=O)NC3CCOCC3)c2)ccc1-c1cn[nH]c1 (stereo partly shown)           t
2  COc1cc(C(=O)N2CCCC2c2cccc(-c3ccnn3C)c2)ccc1-c1cn[nH]c1 (stereo not shown)           f
3  COc1cc(-c2cn[nH]c2)ccc1C(=O)N1CCCC1c1cccc(-c2cn[nH]c2)c1 (stereo not shown)           f
4  COc1cc(C(=O)N2CCc3ccccc32)ccc1-c1cn[nH]c1           f

Given COc1cc(C(=O)N2CCCC2c2cccc(S(N)(=O)=O)c2)ccc1-c1cn[nH]c1 (stereo not shown) [Example 17] , is recorded IC50 strictly lower than 60 nM?
f

Given COc1cc(C(=O)N2CCCC2c2cccc(S(N)(=O)=O)c2)ccc1-c1cn[nH]c1 (stereo not shown) [Example 16] , is recorded IC50 strictly lower than 60 nM?
t

Given COc1cc(C(=O)N2CCCC2c2ccc(Cl)cc2)ccc1-c1cn[nH]c1 (stereo not shown) , is recorded IC50 strictly lower than 60 nM?
f
